- measurementTarget: UniProt:P19099
- Sequence (P19099 25-503): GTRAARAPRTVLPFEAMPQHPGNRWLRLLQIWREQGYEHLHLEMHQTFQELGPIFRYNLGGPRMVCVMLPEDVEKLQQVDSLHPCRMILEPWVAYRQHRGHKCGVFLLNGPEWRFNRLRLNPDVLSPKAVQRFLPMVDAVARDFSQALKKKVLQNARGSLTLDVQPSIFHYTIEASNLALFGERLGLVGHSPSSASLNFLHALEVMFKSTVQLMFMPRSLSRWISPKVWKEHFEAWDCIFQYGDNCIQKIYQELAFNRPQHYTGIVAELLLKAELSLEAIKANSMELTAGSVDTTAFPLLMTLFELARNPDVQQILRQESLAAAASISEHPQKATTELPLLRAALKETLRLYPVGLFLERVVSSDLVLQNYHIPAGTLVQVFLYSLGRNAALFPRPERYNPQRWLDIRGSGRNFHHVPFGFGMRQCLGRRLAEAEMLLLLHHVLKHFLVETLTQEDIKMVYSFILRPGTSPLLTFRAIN
- assayRemarks: G-402 cellular enzyme assay, human CYP11B2 (aldosterone release, HTRF)
- experimentalParameters: G-402 cells expressing human CYP11B2; 1 μM Deoxycorticosterone
- Description: Herein we identified the use of the G-402 cell line as a host cell to ectopically express (transiently or stably) enzymes of the CYP11 family. […] Importantly the identified cell line G-402 expresses co-factors (adrenodoxin and adrenodoxin reductase) important for the activity of the CYP11 family and no relevant enzyme activity of the CYP11 family (in comparison to H295R cells) was detected in these cells. […]
experimentalReadout: log10 of EC50 (log10 of the value in nM)
Friendly reminder: values = log10 of EC50, unit nM.

Consider the worked cases shown below.
N#Cc1ccc(Oc2cn[nH]c2-c2cccc(Cn3ccc(=O)cc3)c2)cc1 [Example 72]
3.21
Clc1ccc(Oc2cn[nH]c2-c2ccccc2Cl)cc1 [Example 6]
0.41
FC(F)Oc1ccccc1-c1[nH]ncc1Oc1ccc(Cl)cc1 [Example 8]
0.60
N#Cc1ccc(Oc2cn[nH]c2-c2cccc(OCc3ccncc3)c2F)cc1 [Example 85]
-0.52
N#Cc1ccc(Oc2cn[nH]c2-c2cccc(OCc3ccnc(Cl)c3)c2)cc1 [Example 55]
1.52

For the next question, use this compound.
Lookup: Which log10 of EC50 reading was recorded for the compound N#Cc1ccc(Oc2cn[nH]c2-c2cccc(O)c2F)cc1 [Example 84] ?
Found: -0.40
